For each entry below, report its activity coefficient value.
Assay: activity coefficient (dimensionless); of the first substance listed, at infinite dilution; xn = mol fraction of the nth substance listed
Conditions: 313 K; 101.33 kPa; Liquid; Chromatography; x1 = 0
One number for each entry.

Check out these entries, answers already filled in.
COMPOUND | activity coefficient
C=CCCCCCCCC [1-decene] + C[n+]1ccn(CCO)c1.O=S(=O)([O-])C(F)(F)C(F)(F)C(F)(F)C(F)(F)F | 107
C#CCCC [1-pentyne] + C[n+]1ccn(CCO)c1.O=S(=O)([O-])C(F)(F)C(F)(F)C(F)(F)C(F)(F)F | 5.07
CC#N [acetonitrile] + C[n+]1ccn(CCO)c1.O=S(=O)([O-])C(F)(F)C(F)(F)C(F)(F)C(F)(F)F | 0.97
ClC(Cl)Cl [trichloromethane] + C[n+]1ccn(CCO)c1.O=S(=O)([O-])C(F)(F)C(F)(F)C(F)(F)C(F)(F)F | 2.2
Cc1ccc(C)cc1 [1,4-dimethylbenzene] + C[n+]1ccn(CCO)c1.O=S(=O)([O-])C(F)(F)C(F)(F)C(F)(F)C(F)(F)F | 11

State recorded activity coefficient for all listed compounds.
1. Cc1ccccc1C [1,2-dimethylbenzene] + C[n+]1ccn(CCO)c1.O=S(=O)([O-])C(F)(F)C(F)(F)C(F)(F)C(F)(F)F
2. CCCO [propan-1-ol] + C[n+]1ccn(CCO)c1.O=S(=O)([O-])C(F)(F)C(F)(F)C(F)(F)C(F)(F)F

Output:
1: 9.7; 2: 2.07

----------
Test: activity coefficient (dimensionless); of the first substance listed, at infinite dilution; xn = mol fraction of the nth substance listed
Conditions: 343 K; 101.33 kPa; Liquid; Chromatography; x1 = 0
MEASURED_PARAMETER: activity coefficient
Give bare numbers.

Known activity coefficient results, listed for orientation:
COMPOUND | MEASURED_PARAMETER | READOUT_VALUE
Cc1ccc(C)cc1 [1,4-dimethylbenzene] + C[n+]1ccn(CCO)c1.O=S(=O)([O-])C(F)(F)C(F)(F)C(F)(F)C(F)(F)F | activity coefficient | 8
CCCCCCC [heptane] + C[n+]1ccn(CCO)c1.O=S(=O)([O-])C(F)(F)C(F)(F)C(F)(F)C(F)(F)F | activity coefficient | 18
CC(C)=O [acetone] + C[n+]1ccn(CCO)c1.O=S(=O)([O-])C(F)(F)C(F)(F)C(F)(F)C(F)(F)F | activity coefficient | 0.85
C1COCCO1 [1,4-dioxane] + C[n+]1ccn(CCO)c1.O=S(=O)([O-])C(F)(F)C(F)(F)C(F)(F)C(F)(F)F | activity coefficient | 1.56
C1CCCCC1 [cyclohexane] + C[n+]1ccn(CCO)c1.O=S(=O)([O-])C(F)(F)C(F)(F)C(F)(F)C(F)(F)F | activity coefficient | 9.39
Cc1ccccc1 [toluene] + C[n+]1ccn(CCO)c1.O=S(=O)([O-])C(F)(F)C(F)(F)C(F)(F)C(F)(F)F | activity coefficient | 4.94

Hi team, please reply with activity coefficient for each item in this list.
1. C#CCCCCCC [1-octyne] + C[n+]1ccn(CCO)c1.O=S(=O)([O-])C(F)(F)C(F)(F)C(F)(F)C(F)(F)F
2. Cc1cccc(C)c1 [1,3-dimethylbenzene] + C[n+]1ccn(CCO)c1.O=S(=O)([O-])C(F)(F)C(F)(F)C(F)(F)C(F)(F)F

Output:
1. 16.9
2. 7.91

Data origin, for the record: the NIST ThermoML archive (doi:10.1021/acs.jced.8b00080)
